Molecular target: recombinant human ACC2 (Homo sapiens, UniProt O00763)
Construct: a cDNA encoding human ACC2 (27-2458) was cloned from human kidney cDNA library (Clontech); His-tag (N); made in house; host or cells: Sf-9 insect cells (Bac-to-Bac baculovirus)
Sequence (O00763 27-2458): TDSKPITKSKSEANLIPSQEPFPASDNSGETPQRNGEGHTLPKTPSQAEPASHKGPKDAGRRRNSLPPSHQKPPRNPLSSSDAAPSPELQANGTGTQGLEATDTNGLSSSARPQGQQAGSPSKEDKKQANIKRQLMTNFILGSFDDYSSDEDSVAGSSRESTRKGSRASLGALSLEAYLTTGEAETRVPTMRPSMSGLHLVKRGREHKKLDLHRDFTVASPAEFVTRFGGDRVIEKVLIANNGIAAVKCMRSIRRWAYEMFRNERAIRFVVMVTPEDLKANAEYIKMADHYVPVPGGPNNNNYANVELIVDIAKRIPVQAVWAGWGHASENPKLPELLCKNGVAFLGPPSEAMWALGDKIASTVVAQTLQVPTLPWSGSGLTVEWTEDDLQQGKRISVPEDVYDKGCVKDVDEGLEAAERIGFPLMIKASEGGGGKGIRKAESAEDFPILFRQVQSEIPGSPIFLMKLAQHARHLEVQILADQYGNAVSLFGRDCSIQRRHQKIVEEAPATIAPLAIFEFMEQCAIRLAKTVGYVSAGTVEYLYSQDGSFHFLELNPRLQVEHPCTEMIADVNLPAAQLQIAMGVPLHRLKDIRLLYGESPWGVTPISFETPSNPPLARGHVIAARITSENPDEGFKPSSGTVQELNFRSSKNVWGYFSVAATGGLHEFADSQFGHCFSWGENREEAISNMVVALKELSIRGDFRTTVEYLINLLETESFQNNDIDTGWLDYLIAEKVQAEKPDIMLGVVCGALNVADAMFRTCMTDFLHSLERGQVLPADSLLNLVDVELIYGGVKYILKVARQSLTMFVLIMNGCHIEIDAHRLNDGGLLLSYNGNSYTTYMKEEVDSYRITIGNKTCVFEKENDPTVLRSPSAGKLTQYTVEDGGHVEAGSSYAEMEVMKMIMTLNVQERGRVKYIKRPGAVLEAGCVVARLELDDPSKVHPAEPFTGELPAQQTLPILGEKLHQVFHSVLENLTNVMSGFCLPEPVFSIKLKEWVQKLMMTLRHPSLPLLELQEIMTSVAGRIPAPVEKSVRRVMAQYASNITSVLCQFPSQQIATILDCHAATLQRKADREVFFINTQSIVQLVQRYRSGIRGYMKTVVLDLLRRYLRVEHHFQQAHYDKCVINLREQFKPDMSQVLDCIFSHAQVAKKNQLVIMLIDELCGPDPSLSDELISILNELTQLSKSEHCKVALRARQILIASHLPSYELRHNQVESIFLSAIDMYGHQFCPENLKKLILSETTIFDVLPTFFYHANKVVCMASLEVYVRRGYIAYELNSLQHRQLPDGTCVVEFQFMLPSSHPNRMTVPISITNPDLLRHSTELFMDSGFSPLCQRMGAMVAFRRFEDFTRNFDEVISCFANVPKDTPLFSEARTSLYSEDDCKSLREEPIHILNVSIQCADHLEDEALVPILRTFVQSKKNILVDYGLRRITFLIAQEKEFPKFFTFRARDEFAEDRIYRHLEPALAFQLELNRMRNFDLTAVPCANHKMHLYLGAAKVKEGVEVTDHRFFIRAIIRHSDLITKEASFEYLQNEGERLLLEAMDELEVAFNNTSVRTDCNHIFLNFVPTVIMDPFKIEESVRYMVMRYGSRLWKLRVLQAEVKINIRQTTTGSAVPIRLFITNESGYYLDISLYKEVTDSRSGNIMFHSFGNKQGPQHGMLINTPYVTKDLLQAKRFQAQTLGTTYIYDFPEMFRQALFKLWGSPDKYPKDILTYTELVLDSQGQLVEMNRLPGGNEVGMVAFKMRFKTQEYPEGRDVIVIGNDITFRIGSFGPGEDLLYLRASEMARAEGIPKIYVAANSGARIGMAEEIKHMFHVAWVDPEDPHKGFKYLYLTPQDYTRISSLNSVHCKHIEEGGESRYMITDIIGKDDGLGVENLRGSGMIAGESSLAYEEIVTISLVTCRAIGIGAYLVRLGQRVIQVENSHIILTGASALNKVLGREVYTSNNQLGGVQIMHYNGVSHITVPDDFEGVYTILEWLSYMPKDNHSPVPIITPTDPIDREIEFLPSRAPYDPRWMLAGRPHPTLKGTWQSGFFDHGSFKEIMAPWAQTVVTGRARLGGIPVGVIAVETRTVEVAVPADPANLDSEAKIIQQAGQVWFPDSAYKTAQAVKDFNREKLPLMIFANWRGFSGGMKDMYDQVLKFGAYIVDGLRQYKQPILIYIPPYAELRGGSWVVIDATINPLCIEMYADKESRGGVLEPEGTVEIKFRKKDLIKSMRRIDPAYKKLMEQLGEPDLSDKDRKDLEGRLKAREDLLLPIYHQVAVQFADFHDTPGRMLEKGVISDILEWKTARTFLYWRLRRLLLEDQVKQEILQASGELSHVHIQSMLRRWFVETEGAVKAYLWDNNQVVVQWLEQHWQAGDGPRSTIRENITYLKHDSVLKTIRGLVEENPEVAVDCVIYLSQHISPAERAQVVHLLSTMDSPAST
Assay: Measurement of inhibitory activity on human ACC2 (MALDI-TOF MS, acetyl CoA to malonyl CoA conversion)
Type: biochemical
Conditions: inhibition activity on human ACC2, Table 84; read-out: IC50
hey, just use y if measured IC50 is less than 20 nM, otherwise n

Inquiry: Regarding CC(=O)N[C@@H](C)/C=C/c1ccc(Oc2ccc3c(c2Cl)CCC3(F)F)nc1 , kindly confirm whether its IC50 is beneath 20 nM.
Reply text: y

Inquiry: Dear reviewer, please state whether CC(=O)N[C@@H](C)/C=C/c1ccc(Oc2cc3sc(C(C)C)nc3cc2Cl)nc1 has IC50 strictly beneath 20 nM.
Reply text: y

Inquiry: Identify whether the molecule CC(=O)N[C@@H](C)/C=C/c1ccc(Oc2ccc3nc(C)sc3c2C#N)nc1 records IC50 below 20 nM.
Reply text: n

Inquiry: Hello, is IC50 of the following molecule strictly smaller than 20 nM? CCCc1ccc(Cl)c(Oc2ccc(/C=C/[C@H](C)NC(C)=O)cn2)c1
Reply text: n

Inquiry: In the record for CCCc1ccc(Oc2ccc(/C=C(\F)[C@H](C)NC(C)=O)cn2)c(Cl)c1 , is IC50 less than 20 nM?
Reply text: y

Inquiry: Does the reported IC50 of CC(=O)N[C@@H](C)/C=C/c1cnc(Oc2cc3c(cc2Cl)OC(C)(C)C3)cn1 stay below 20 nM?
Reply text: n

Inquiry: Check if IC50 falls below 20 nM for CCOc1ccc(Oc2ccc(/C=C/[C@H](C)NC(C)=O)nc2)c(Cl)c1 .
Reply text: n

Inquiry: Is it true that IC50 reported for CC(=O)N[C@@H](C)/C=C/c1ccc(Oc2ccc(C3CC3C)cc2Cl)nc1 (some centres unmarked) is less than 20 nM?
Reply text: y

* * *

Biological target: recombinant human ACC2 (Homo sapiens, UniProt O00763)
Construct: a cDNA encoding human ACC2 (27-2458) was cloned from human kidney cDNA library (Clontech); His-tag (N); made in house; host or cells: Sf-9 insect cells (Bac-to-Bac baculovirus)
Assay: Measurement of inhibitory activity on human ACC2 (MALDI-TOF MS, acetyl CoA to malonyl CoA conversion)
Assay type: biochemical
Settings: inhibition activity on human ACC2, Table 82; read-out: IC50
ASSAY_READOUT: pIC50
Scale: pIC50 equals -log10([C]), with [C] in mol/L.

Inquiry: What value of measured pIC50 is listed for CC(=O)N[C@@H](C)/C=C/c1ccc(Oc2ccc(C(C)F)cc2Cl)nc1 (stereo partly shown) [Compound I-332] ?
Reply text: 7.04

Inquiry: Which pIC50 is reported for this compound? CC(=O)N[C@@H](C)/C=C/c1ccc(Oc2ccc(OS(=O)(=O)C(F)(F)F)cc2Cl)nc1 [Compound I-331]
Reply text: 6.89

Inquiry: What does the record list as pIC50 for CC(=O)N[C@@H](C)/C=C/c1ccc(Oc2ccc(C(C)=O)cc2Cl)nc1 [Compound I-327] ?
Reply text: 6.47

Inquiry: Data request, read-out pIC50, for CC(=O)NC(C)/C(F)=C/c1ccc(Oc2ccc(OCC3CC3)cc2Cl)nc1 (stereo not shown) [Compound I-366]
Reply text: 7.82

Inquiry: # get_value(readout='pIC50', item= COc1ccc(-c2ccc(Oc3ccc(/C=C/[C@H](C)NC(C)=O)cn3)c(Cl)c2)cn1 [Compound I-348] )
Reply text: 6.68

Inquiry: Give its pIC50 value. Item: CO/N=C(\C)c1ccc(Oc2ccc(/C=C/[C@H](C)NC(C)=O)cn2)c(Cl)c1 [Compound I-333]
Reply text: 6.74

Inquiry: Given the compound CC(=O)N[C@@H](C)/C=C/c1ccc(Oc2ccc(SCC(C)C)cc2Cl)nc1 [Compound I-364] , what is its reported pIC50?
Reply text: 7.89

Inquiry: Need pIC50 of CCS(=O)(=O)c1ccc(Oc2ccc(/C=C/[C@H](C)NC(C)=O)cn2)c(Cl)c1 [Compound I-362] , thanks.
Reply text: 6.46

Inquiry: pIC50 lookup needed for CC(=O)N[C@@H](C)/C=C/c1ccc(Oc2ccc(Cc3ccccc3)cc2Cl)nc1 [Compound I-358] , thanks.
Reply text: 7.57

Inquiry: Suppose we examine the compound CC(=O)N[C@@H](C)/C=C/c1ccc(Oc2ccc(-c3ccc(C#N)nc3)cc2Cl)nc1 [Compound I-376] ; what pIC50 value has been reported?
Reply text: 5.96

Inquiry: Which value of pIC50 has been reported for CC(=O)N[C@@H](C)/C=C/c1ccc(Oc2ccc(C3=CCC4(CC3)CC4)c(Cl)c2)nc1 [Compound I-378] in the records?
Reply text: 7.80

Inquiry: Given CCCc1ccc(Oc2ccc(/C=C/[C@H](C)NC(C)=O)cn2)nc1 [Compound I-336] , state its recorded pIC50.
Reply text: 5.70

Inquiry: Consider the compound CCOc1ccc(Oc2ncc(/C=C/[C@H](C)NC(C)=O)cc2Cl)c(Cl)c1 [Compound I-334] and give its measured pIC50.
Reply text: 7.33

* * *

Biological target: recombinant human ACC2 (Homo sapiens)
Construct: a cDNA encoding human ACC2 (27-2458) was cloned from human kidney cDNA library (Clontech); His-tag (N); made in house; host or cells: Sf-9 insect cells (Bac-to-Bac baculovirus)
Assay: Measurement of inhibitory activity on human ACC2 (MALDI-TOF MS, acetyl CoA to malonyl CoA conversion)
Format: biochemical
Details: inhibition activity on human ACC2, Table 79; read-out: IC50
ASSAY_READOUT: IC50 (nM)
Quick reminder: number only, in nM, skip the unit.

Inquiry: Which value of IC50 has been reported for COc1cccc(Oc2ccc(/C=C/[C@H](C)NC(C)=O)cn2)c1Cl in the records?
Reply text: 94

Inquiry: # get_value(readout='IC50', item= C[C@@H](/C=C/c1cnc(Oc2ccc(OCC3CC3)cc2Cl)s1)NC(=O)C1CCOCC1 )
Reply text: 460

Inquiry: # query: IC50 of entry COc1cc(Cl)cc(Oc2ccc(/C=C/[C@H](C)NC(C)=O)cn2)c1
Reply text: 97

Inquiry: Find the recorded IC50 belonging to CC(=O)N[C@@H](C)/C=C/c1ccc(Oc2cc(Cl)cc(OCC3CC3)c2)nc1 and report it.
Reply text: 80

Inquiry: What value of IC50 has been recorded for this entry: COc1cncc(Oc2ccc(/C=C/[C@H](C)NC(C)=O)cn2)c1
Reply text: 7100

Inquiry: For CC(=O)N[C@@H](C)/C=C/c1ccc(Oc2ccc(OCC3CC3)cc2Cl)nc1 , what is its reported IC50?
Reply text: 6.9

Inquiry: What does the data say about its IC50? Entry: CCOc1ccc(OCc2ccc(/C=C/[C@H](C)NC(C)=O)cn2)c(Cl)c1
Reply text: 1100

Inquiry: Can you look up the measured IC50 of CCCOc1ccc(Oc2ccc(/C=C/[C@H](C)NC(C)=O)cn2)c(Cl)c1 for me?
Reply text: 9.1

Inquiry: # query: IC50 of entry CC(=O)N[C@@H](C)/C=C/c1ccc(Oc2ccc(N3CCCC3)cc2Cl)nc1
Reply text: 14

Inquiry: Could you share which IC50 value was measured for CC(=O)N[C@@H](C)/C=C/c1ccc(Oc2ccc(OC3CCC3)cc2Cl)nc1 ?
Reply text: 11

Inquiry: Sample CC(=O)N[C@@H](C)/C=C/c1ccc(Oc2ccc(OCC3CC3)c(Cl)c2)nc1 — what was its IC50?
Reply text: 5.2

Inquiry: Consider the compound shown here: COC(=O)c1ccn(CC(=O)N[C@@H](C)/C=C/c2cnc(Oc3ccc(OCC4CC4)cc3Cl)s2)n1 What is its recorded IC50?
Reply text: 480

* * *

Target: recombinant human ACC2 (Homo sapiens, UniProt O00763)
Construct: a cDNA encoding human ACC2 (27-2458) was cloned from human kidney cDNA library (Clontech); His-tag (N); made in house; host or cells: Sf-9 insect cells (Bac-to-Bac baculovirus)
Test: Measurement of inhibitory activity on human ACC2 (MALDI-TOF MS, acetyl CoA to malonyl CoA conversion)
Type: biochemical
Conditions: inhibition activity on human ACC2, Table 80; read-out: IC50
ASSAY_READOUT: pIC50
Kindly note that pIC50 refers to -log10 of the concentration in mol/L and answer with the value alone.

Inquiry: Looking for the measured pIC50 of C[C@@H](/C=C/c1cnn(Cc2ccc(OCC3CC3)cc2Cl)c1)NC(=O)c1ccon1 , can you help?
Reply text: 5.59

Inquiry: Looking for the measured pIC50 of CCOc1ccc(C(F)(F)c2ccc(/C=C/[C@H](C)NC(N)=O)cn2)c(Cl)c1 , can you help?
Reply text: 5.74

Inquiry: For the compound C[C@@H](/C=C/c1cnc(Oc2ccc(OCC3CC3)cc2Cl)s1)NC(=O)c1ccnc(C(=O)NCCN2CCCC2)c1 , what pIC50 is on record?
Reply text: 7.62

Inquiry: Tell me the measured pIC50 of C[C@@H](/C=C/c1cnc(Oc2ccc(OCC3CC3)cc2Cl)s1)NC(=O)c1ccnc(C(=O)NCCN2CCOCC2)c1 , please.
Reply text: 8.31

Inquiry: Fill in the blank: the reported pIC50 of CCN1CCN(CCC(=O)N[C@@H](C)/C=C/c2cnc(Oc3ccc(OCC4CC4)cc3Cl)s2)CC1 is ____.
Reply text: 5.85

Inquiry: Give its pIC50 value. Item: CC(C)S(=O)(=O)NCCC(=O)N[C@@H](C)/C=C/c1cnc(Oc2ccc(OCC3CC3)cc2Cl)s1
Reply text: 5.74

Inquiry: For COC(=O)N[C@@H](C)/C=C/c1cnn(Cc2ccc(OCC3CC3)cc2Cl)c1 , what is its reported pIC50?
Reply text: 6.18

Inquiry: Consider the compound shown here: CCOC(=O)CCNc1cc(C(=O)N[C@@H](C)/C=C/c2cnc(Oc3ccc(OCC4CC4)cc3Cl)s2)ccn1 What is its recorded pIC50?
Reply text: 6.37
